tested on: A7R5 (rat aorta smooth muscle) cells; assay: Intracellular Ca2+ measurements, Fluo-4 NW Calcium Assay Kit, KCl-induced [Ca2+]i increase; type: cell-based; settings: Rattus norvegicus, A7R5, read-out: Ca^2+ A7R5, IC50
# pIC50 values compiled below
Here pIC50 is given on a logarithmic scale as minus log10 of the concentration in mol/L.

As a guide, the following entries are already answered.
CCOC(=O)c1c(C)nc2sc(C(=O)c3ccc(OC)cc3)c(N)c2c1-c1ccc(OC)c(OC)c1 [Compound 20]
5.52
COC(=O)c1c(C)nc2sc(C(=O)c3ccc(Cl)cc3)c(N)c2c1-c1cc(OC)c(OC)c(OC)c1 [Compound 9]
5.52
CCOC(=O)c1c(C)nc2sc(C(=O)c3ccc(OC)cc3)c(N)c2c1-c1ccc(N(C)C)cc1 [Compound 29]
4.46
COCCOC(=O)c1c(C)nc2sc(C(=O)c3ccc(OC)cc3)c(N)c2c1-c1ccc(OC)cc1 [Compound 31]
4.68
COC(=O)c1c(C)nc2sc(C(=O)c3ccc(OC)cc3)c(N)c2c1-c1ccc(OC)cc1 [Compound 5]
4.81
CCOC(=O)c1c(C)nc2sc(C(=O)c3ccc(F)cc3)c(N)c2c1-c1ccc(OC)c(OC)c1 [Compound 18]
5.15
COC(=O)c1c(C)nc2sc(C(=O)c3ccc(F)cc3)c(N)c2c1-c1cc(OC)c(OC)c(OC)c1 [Compound 8]
5.52
COC(=O)c1c(C)nc2sc(C(=O)c3ccc4ccccc4c3)c(N)c2c1-c1cc(OC)c(OC)c(OC)c1 [Compound 41]
4.74
CCOC(=O)c1c(C)nc2sc(C(=O)c3ccc(OC)cc3OC)c(N)c2c1-c1cc(OC)c(OC)c(OC)c1 [Compound 25]
4.34
COCCOC(=O)c1c(C)nc2sc(C(=O)c3ccc(OC)cc3OC)c(N)c2c1-c1cc(OC)c(OC)c(OC)c1 [Compound 35]
5.05

The measured pIC50 associated with CCOC(=O)c1c(C)nc2sc(C(=O)c3ccc(OC)cc3)c(N)c2c1-c1ccc(O)cc1 [Compound 14] reads 5.37

The measured pIC50 associated with CCOC(=O)c1c(C)nc2sc(C(=O)c3ccc(OC)cc3)c(N)c2c1-c1ccc2c(c1)OCO2 [Compound 42] reads 4.74

The measured pIC50 associated with CCOC(=O)c1c(C)nc2sc(C(=O)c3ccc(Cl)cc3)c(N)c2c1-c1cc(OC)c(OC)c(OC)c1 [Compound 23] reads 5.40

The measured pIC50 associated with COc1ccc(C(=O)c2sc3nc(C)c(C(C)=O)c(-c4ccc(OC)c(OC)c4)c3c2N)c(OC)c1 [Compound 2] reads 4.82

The measured pIC50 associated with COCCOC(=O)c1c(C)nc2sc(C(=O)c3ccc(OC)cc3)c(N)c2c1-c1cc(OC)c(OC)c(OC)c1 [Compound 34] reads 5.51

The measured pIC50 associated with COCCOC(=O)c1c(C)nc2sc(C(=O)c3ccccc3)c(N)c2c1-c1cc(OC)c(OC)c(OC)c1 [Compound 32] reads 5.66

* * *

system: A7R5 (rat aorta smooth muscle) cells; assay: Intracellular Ca2+ measurements, Fluo-4 NW Calcium Assay Kit, KCl-induced [Ca2+]i increase; assay type: cell-based; conditions: Rattus norvegicus, A7R5, read-out: Ca^2+ A7R5, IC50
# log10(IC50) values compiled below
For clarity, the numbers are log10 values of IC50 expressed in µM.

COc1ccc(C(=O)c2sc3nc(C)c(C(C)=O)c(-c4ccc(OC)c(OC)c4)c3c2N)cc1
1.38
CCOC(=O)c1c(C)nc2sc(C(=O)c3ccc(Cl)cc3)c(N)c2c1-c1ccc(OC)c(OC)c1
1.04

// returns log10(IC50) for CCOC(=O)c1c(C)nc2sc(C(=O)c3ccc(OC)cc3)c(N)c2c1-c1ccc(O)c(OC)c1 with A7R5 (rat aorta smooth muscle) cells; value = 0.57

// returns log10(IC50) for COC(=O)c1c(C)nc2sc(C(=O)c3ccc(OC)cc3)c(N)c2c1-c1cc(OC)c(OC)c(OC)c1 with A7R5 (rat aorta smooth muscle) cells; value = 0.95

// returns log10(IC50) for COCCOC(=O)c1c(C)nc2sc(C(=O)c3cccc(OC)c3)c(N)c2c1-c1cc(OC)c(OC)c(OC)c1 with A7R5 (rat aorta smooth muscle) cells; value = 0.79

// returns log10(IC50) for CCOC(=O)c1c(C)nc2sc(C(=O)c3ccc(OC)cc3)c(N)c2c1-c1ccc(OC)cc1 with A7R5 (rat aorta smooth muscle) cells; value = 2.00

// returns log10(IC50) for CCOC(=O)c1c(C)nc2sc(C(=O)c3ccc(OC)cc3OC)c(N)c2c1-c1ccc(OC)c(OC)c1 with A7R5 (rat aorta smooth muscle) cells; value = 0.08

// returns log10(IC50) for CCOC(=O)c1c(C)nc2sc(C(=O)c3ccc(F)cc3)c(N)c2c1-c1cc(OC)c(OC)c(OC)c1 with A7R5 (rat aorta smooth muscle) cells; value = 1.30

// returns log10(IC50) for CCCCOC(=O)c1c(C)nc2sc(C(=O)c3ccc(OC)cc3)c(N)c2c1-c1cc(OC)c(OC)c(OC)c1 with A7R5 (rat aorta smooth muscle) cells; value = 0.70
